- targetOrSystem: mAChR M4 (UniProt P08173)
- Construct: hM1 and hM4 cDNAs were purchased from Missouri S&T cDNA Resource
- methodDescription: mAChR M4 cell-based functional assay (calcium mobilization, Fluo-4, FDSS)
- particulars: % ACh maximum at 30 μM
measureName: Emax (%)*

Lab note: Cc1cc(C)c2c(n1)sc1c(NC(C)C)nn(C)c12 gave Emax (%)* of 87%

Lab note: CCCn1nc(NCc2ccc(S(C)(=O)=O)cc2)c2sc3nc(C)cc(C)c3c21 gave Emax (%)* of 59%

* * *

- targetOrSystem: mAChR M4 (UniProt P08173)
- Construct: hM1 and hM4 cDNAs were purchased from Missouri S&T cDNA Resource
- methodDescription: mAChR M4 cell-based functional assay (calcium mobilization, Fluo-4, FDSS)
- particulars: positive allosteric modulator activity: concentration-dependent increase in the EC20 acetylcholine response, CHO-K1 cells; >10 μM estimated for low potency (no plateau)
measureName: EC50

Below are worked cases with known answers.
1. Cc1cc(C)c2c(n1)sc1c(NC3CCC(N)CC3)n[nH]c12 (stereo not drawn) [Compound 138] : > 10 µM
2. Cc1cc(C)c2c(n1)sc1c(NC3CCN(C(C)C)CC3)nn(C)c12 [Compound 162] : > 10 µM

Lab note: Cc1nc2sc3c(Nc4ccncc4)nn(C)c3c2c(C)c1Cl [Compound 148] gave EC50 of > 10 µM

Recorded values, source patent US9056876B2.
